- EXPERIMENTAL SYSTEM: T1, human MSR1 with a C-terminal Myc tag expressed on HEK293.Myc.hMSR1 cells (human, UniProt P21757 1-451)
- T1 sequence (looked up): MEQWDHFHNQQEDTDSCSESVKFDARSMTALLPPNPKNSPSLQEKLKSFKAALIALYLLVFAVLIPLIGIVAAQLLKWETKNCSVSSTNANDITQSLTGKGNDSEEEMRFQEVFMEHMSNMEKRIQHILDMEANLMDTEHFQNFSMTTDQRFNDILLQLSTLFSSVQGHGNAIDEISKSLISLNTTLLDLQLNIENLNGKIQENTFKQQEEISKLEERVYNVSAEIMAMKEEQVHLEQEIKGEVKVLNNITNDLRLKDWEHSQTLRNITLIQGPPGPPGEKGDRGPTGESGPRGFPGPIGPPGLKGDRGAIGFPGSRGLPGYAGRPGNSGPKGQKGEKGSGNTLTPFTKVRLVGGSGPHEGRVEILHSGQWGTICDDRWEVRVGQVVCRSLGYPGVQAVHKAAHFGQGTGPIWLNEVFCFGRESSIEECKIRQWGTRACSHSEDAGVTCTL
- ASSAY REMARKS: cell-based or functional assay
READOUT: % Inhibition of Dil-Acetylated LDL uptake (%)
Give the number; % is assumed, so skip it.

binder H1H21227N-N297Q (antibody, V domains shown) VH: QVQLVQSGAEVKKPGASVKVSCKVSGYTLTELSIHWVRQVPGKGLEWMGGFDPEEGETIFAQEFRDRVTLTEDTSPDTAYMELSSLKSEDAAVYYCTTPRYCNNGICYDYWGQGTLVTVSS VL: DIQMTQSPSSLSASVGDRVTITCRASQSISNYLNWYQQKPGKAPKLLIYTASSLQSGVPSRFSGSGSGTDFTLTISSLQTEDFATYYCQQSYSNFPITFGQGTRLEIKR , % Inhibition of Dil-Acetylated LDL uptake observed: 65
